# Experimental Protocol: chemical genetic growth profiling, strain panel (AID 1159580);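 note: tested at 20 µM; growth read once vehicle control cultures reached saturation at 30 °C; lower values mean less growth of the strain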
# Assay Conditions: S. cerevisiae deletion strains, growth OD, locus YDR477W, strain SNF1
In all, about 5,500 compounds went through this assay and about 2,000 (36%) were called active. Roughly 18% stayed inconclusive and do not appear here. Cut-off read from the data, not from the text of the source: active = normalized growth mostly below about 0.91 (no sharp cut-off); inconclusive = no clear call, values can overlap the other calls; inactive = mostly above about 0.92. The list shows a part of the results.
Possible outcomes: active, inactive

| Molecule | Discrete Label |
| --- | --- |
| O=C(NNc1ccc(Cl)cc1)c1ccc(F)cc1F | inactive |
| CC(C)(C)C(=O)/C(C#N)=C/c1c(Cl)cccc1Cl | active |
| CSC(=NNc1ccccc1)NC(=O)c1c(Cl)cccc1Cl | inactive |
| O=[N+]([O-])c1ccc(-c2csc(Nc3ccncc3)n2)cc1 | inactive |
| N#Cc1ccc(NC(=O)Nc2cccc3ccccc23)cc1 | inactive |
| O=C(Nc1cccc2ccccc12)c1ccccc1O | active |
| O=C1/C(=C/c2cccs2)COc2ccccc21 | inactive |
| Cc1ccc(N2C(=O)CSC2c2ccc(Cl)c(Cl)c2)cc1Cl (centres undefined) | inactive |
| CC1(C)c2ccccc2N(CCC(N)=O)C12C=Cc1c(ccc3ccccc13)O2 (centres undefined) | inactive |
| Cc1onc(-c2ccccc2)c1C(=O)Sc1ccc(C(F)(F)F)cn1 | active |
| Cc1c(S(=O)(=O)c2ccc(Cl)cc2)csc1C(=O)NNc1cccc(Cl)c1 | inactive |
| CNC(=O)n1nc(C)c(Cc2csc3ccc(Cl)cc23)c1C | inactive |
| COc1cc(CC/C(C)=N\O)ccc1OCc1ccc(Cl)c(Cl)c1 | inactive |
| COc1cc(CC/C(C)=N/O)ccc1OCc1ccc(Cl)cc1Cl | inactive |
